target: T1, human ACVR2A (human, UniProt P27037 20-135, limits assumed); assay: ELISA; also: test concentration or dose not given here
T1 construct: also called activin receptor, type II A
T1 sequence (P27037 20-135 limits assumed): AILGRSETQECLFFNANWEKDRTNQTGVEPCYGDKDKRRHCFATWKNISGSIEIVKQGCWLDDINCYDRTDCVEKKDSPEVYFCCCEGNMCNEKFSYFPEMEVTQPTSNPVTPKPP
Items are presented alongside their recorded optical density.
Just the number in OD, nothing appended.

Here are 8 binders together with their reported answers.
365_G06 (antibody, V domains shown, Group II) VH: EVQLLESGGGLVQPGGSLRLSCAASGFTFDSYGMHWVRQAPGKGLEWVAGINYNGGYTSYADSVKGRFTISRDNSKNTLYLQMNSLRAEDTAVYYCARAATWHDTHLDYWGQGTLVTVSS VL: DIQMTQSPSSLSASVGDRVTITCRASQSILSYLNWYQQKPGKAPKLLIYAATSLASGVPSRFSGSGSGTDFTLTISSLQPEDFATYYCQQSDSTPLTFGGGTKVEIK = 2.2
369_B08 (antibody, V domains shown, Group II) VH: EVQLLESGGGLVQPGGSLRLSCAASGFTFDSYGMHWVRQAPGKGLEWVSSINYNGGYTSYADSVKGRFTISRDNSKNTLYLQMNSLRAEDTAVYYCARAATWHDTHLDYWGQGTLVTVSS VL: DIQMTQSPSSLSASVGDRVTITCRASQSILSYVNWYQQKPGKAPKLLIYAATSRASGVPSRFSGSGSGTDFTLTISSLQPEDFATYYCQQSYESPLTFGGGTKVEIK = 2.75
366_F10 (antibody, V domains shown, Group I) VH: EVQLLESGGGLVQPGGSLRLSCAASGFTFDSYSMNWVRQAPGKGLEWVAGINYNGGYTGYADSVKGRFTISRDNSKNTLYLQMNSLRAEDTAVYYCARAANWHDTHLDYWGQGTLVTVSS VL: DIQMTQSPSSLSASVGDRVTITCRASQSIVSYLNWYQQKPGKAPKLVIYAATSRASGVPSRFSGSGSGTDFTLTISSLQPEDFATYYCQQSYDTPLTFGGGTKVEIK = 2.05
368_H03 (antibody, V domains shown, Group II) VH: EVQLLESGGGLVQPGGSLRLSCAASGFTFDDYSMHWVRQAPGKGLEWVASINYNGGYTGYADSVKGRFTISRDNSKNTLYLQMNSLRAEDTAVYYCARAATWHDTHLDYWGQGTLVTVSS VL: DIQMTQSPSSLSASVGDRVTITCRASQSILSYVNWYQQKPGKAPKLVIYAVTSRHSGVPSRFSGSGSGTDFTLTISSLQPEDFATYYCQQSYSNPLTFGGGTKVEIK = 2.44
365_D08 (antibody, V domains shown, Group II) VH: EVQLLESGGGLVQPGGSLRLSCAASGFTFDSYSMHWVRQAPGKGLEWVSSINYNGGYTSYADSVKGRFTISRDNSKNTLYLQMNSLRAEDTAVYYCARAATWHDTHLDYWGQGTLVTVSS VL: DIQMTQSPSSLSASVGDRVTITCRASQSIITYVNWYQQKPGKAPKLLIYAATSRASGVPSRFSGSGSGTDFTLTISSLQPEDFATYYCQQSYDTPLTFGGGTKVEIK = 2.26
365_E04 (antibody, V domains shown, Group I) VH: EVQLLESGGGLVQPGGSLRLSCAASGFTFDSYGMHWVRQAPGKGLEWVASINYNGGYKSYADSVKGRFTISRDNSKNTLYLQMNSLRAEDTAVYYCARAANWHDTALDYWGQGTLVTVSS VL: DIQMTQSPSSLSASVGDRVTITCRASQSILSYVNWYQQKPGKAPKLLIYAATSLASGVPSRFSGSGSGTDFTLTISSLQPEDFATYYCQQSYELPLTFGGGTKVEIK = 2.34
365_C05 (antibody, V domains shown, Group III) VH: EVQLLESGGGLVQPGGSLRLSCAASGFTFSDYSMNWVRQAPGKGLEWVSGINYNGGYKGYADSVKGRFTISRDNSKNTLYLQMNSLRAEDTAVYYCARGANWHDTHLDYWGQGTLVTVSS VL: DIQMTQSPSSLSASVGDRVTITCRASQSILTYLNWYQQKPGKAPKLLIYAATSRHSGVPSRFSGSGSGTDFTLTISSLQPEDFATYYCQQSYNSPLTFGGGTKVEIK = 2.56
365_G03 (antibody, V domains shown, Group III) VH: EVQLLESGGGLVQPGGSLRLSCAASGFTFSSYGMNWVRQAPGKGLEWVAGINYNSGYKGYADSVKGRFTISRDNSKNTLYLQMNSLRAEDTAVYYCARGANWHDTHLDYWGQGTLVTVSS VL: DIQMTQSPSSLSASVGDRVTITCRASQSIVSYLNWYQQKPGKAPKLLIYAATSRASGVPSRFSGSGSGTDFTLTISSLQPEDFATYYCQQSYNTPLTFGGGTKVEIK = 2.24

Query: Name the reported optical density value associated with the binder 366_B09 (antibody, V domains shown, Group II) VH: EVQLLESGGGLVQPGGSLRLSCAASGFTFSDYGMHWVRQAPGKGLEWVSSINYNSGYKSYADSVKGRFTISRDNSKNTLYLQMNSLRAEDTAVYYCARAATWHDTHLDYWGQGTLVTVSS VL: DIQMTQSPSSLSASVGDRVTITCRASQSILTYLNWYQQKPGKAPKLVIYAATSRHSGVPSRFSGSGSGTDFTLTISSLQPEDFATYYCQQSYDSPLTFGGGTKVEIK
Response: 2.3

Query: Name the reported optical density value associated with the binder 367_E10 (antibody, V domains shown, Group II) VH: EVQLLESGGGLVQPGGSLRLSCAASGFTFSSYGMHWVRQAPGKGLEWVSSINYNGGYTGYADSVKGRFTISRDNSKNTLYLQMNSLRAEDTAVYYCARAATWHDTHLDYWGQGTLVTVSS VL: DIQMTQSPSSLSASVGDRVTITCRASQSILSYVNWYQQKPGKAPKLLIYAATSRASGVPSRFSGSGSGTDFTLTISSLQPEDFATYYCQQSYELPLTFGGGTKVEIK
Response: 2.77

// data source = patent US20210380703A1
